DPP-IV enzyme (Homo sapiens, UniProt P27487): recorded IC50 for assorted compounds
Sequence (P27487 39-766 limits assumed): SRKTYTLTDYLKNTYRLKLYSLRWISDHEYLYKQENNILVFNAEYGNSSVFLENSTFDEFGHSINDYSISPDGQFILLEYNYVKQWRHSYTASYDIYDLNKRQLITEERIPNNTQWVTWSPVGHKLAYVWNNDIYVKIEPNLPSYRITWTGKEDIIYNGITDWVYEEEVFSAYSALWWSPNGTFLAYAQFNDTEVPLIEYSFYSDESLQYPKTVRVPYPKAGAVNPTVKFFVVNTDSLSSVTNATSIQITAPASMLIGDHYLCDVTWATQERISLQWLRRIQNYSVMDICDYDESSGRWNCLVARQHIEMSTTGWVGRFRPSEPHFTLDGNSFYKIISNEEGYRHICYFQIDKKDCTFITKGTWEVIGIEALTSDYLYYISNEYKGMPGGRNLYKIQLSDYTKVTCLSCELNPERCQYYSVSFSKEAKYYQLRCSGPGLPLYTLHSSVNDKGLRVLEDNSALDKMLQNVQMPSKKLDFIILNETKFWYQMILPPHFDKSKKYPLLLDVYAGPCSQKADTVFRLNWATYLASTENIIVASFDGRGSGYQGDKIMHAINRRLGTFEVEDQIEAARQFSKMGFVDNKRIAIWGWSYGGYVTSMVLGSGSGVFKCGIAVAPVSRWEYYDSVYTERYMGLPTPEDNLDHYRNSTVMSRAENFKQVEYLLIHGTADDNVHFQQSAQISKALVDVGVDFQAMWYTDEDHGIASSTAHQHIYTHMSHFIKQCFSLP
Endpoint: IC50

CS(=O)(=O)N1CCC2CN([C@H]3CO[C@H](c4cc(F)ccc4F)[C@@H](N)C3)CC2C1 (stereo partly shown)    < 0.1 µM
N[C@H]1C[C@@H](N2CC3C(=O)N(Cc4ccccc4)C(=O)C3C2)CO[C@@H]1c1cc(F)ccc1F (stereo partly shown)    < 0.1 µM
CS(=O)(=O)N1CC2CN([C@H]3CO[C@H](c4cc(F)ccc4F)[C@@H](N)C3)CC2C1 (stereo partly shown)    < 0.03 µM
N[C@H]1C[C@@H](N2CC3=C(C2)CN(S(=O)(=O)c2ccc(C(F)(F)F)cc2)C3)CO[C@@H]1c1cc(F)ccc1F    < 0.03 µM
N[C@H]1C[C@@H](N2CC3C(=O)N(C4CC4)C(=O)C3C2)CO[C@@H]1c1cc(F)ccc1F (stereo partly shown)    < 0.1 µM
CC(C)c1ccc(S(=O)(=O)N2CC3=C(CN([C@H]4CO[C@H](c5cc(F)ccc5F)[C@@H](N)C4)C3)C2)cc1    < 0.01 µM
COC(=O)N1CC2=C(C1)CN([C@H]1CO[C@H](c3cc(F)ccc3F)[C@@H](N)C1)C2    < 0.01 µM

###

test system: C57BL/6J mice; assay: In vivo antihyperglycaemic/antidiabetic activity (OGTT), acute single dose 120-min time-course; conditions: Mus musculus, 2 h; male C57BL/6J mice, acute single dose 0,3 mg/kg po, 120-min time-course, n = 6, Mean ± SEM; read-out: In vivo OGTT C57; % Glucose change
Overview of recorded change in vivo at 0.3 mg/kg for various molecules
Endpoint: change in vivo at 0.3 mg/kg (%)

N[C@H]1C[C@@H](N2CC3CN(S(=O)(=O)C(F)(F)F)CC3C2)CO[C@@H]1c1cc(F)ccc1F (stereo partly drawn)    -7.6
N[C@H]1C[C@@H](N2CC3C(=O)N(Cc4ccccc4)C(=O)C3C2)CO[C@@H]1c1cc(F)ccc1F (stereo partly drawn)    -25.6
CS(=O)(=O)N1CC2=C(CN([C@H]3CO[C@H](c4cc(F)ccc4F)[C@@H](N)C3)C2)C1    -49.1
N[C@H]1C[C@@H](N2CC3=C(CNC3)C2)CO[C@@H]1c1cc(F)ccc1F    -12.5
CS(=O)(=O)NC1CC2CN([C@H]3CO[C@H](c4cc(F)ccc4F)[C@@H](N)C3)CC2C1 (stereo partly drawn)    -15
CC(C)S(=O)(=O)N1CC2=C(CN([C@H]3CO[C@H](c4cc(F)ccc4F)[C@@H](N)C3)C2)C1    -28.1
N[C@H]1C[C@@H](N2CC3=C(C2)CS(=O)(=O)C3)CO[C@@H]1c1cc(F)ccc1F    -27.3
N[C@H]1C[C@@H](N2CC3CS(=O)(=O)CC3C2)CO[C@@H]1c1cc(F)ccc1F (stereo partly drawn)    -15.5
N[C@H]1C[C@@H](N2CC3=C(CN(C(=O)Nc4ccccc4)C3)C2)CO[C@@H]1c1cc(F)ccc1F    -34.9

Origin of the recorded values: patent US20150246025A1
